Assign DC50 to each entry below.
Target: PTPN2 (Mus musculus, UniProt Q06180)
Construct: HiBiT; host or cells: B16F10.4
Sequence (Q06180 whole entry): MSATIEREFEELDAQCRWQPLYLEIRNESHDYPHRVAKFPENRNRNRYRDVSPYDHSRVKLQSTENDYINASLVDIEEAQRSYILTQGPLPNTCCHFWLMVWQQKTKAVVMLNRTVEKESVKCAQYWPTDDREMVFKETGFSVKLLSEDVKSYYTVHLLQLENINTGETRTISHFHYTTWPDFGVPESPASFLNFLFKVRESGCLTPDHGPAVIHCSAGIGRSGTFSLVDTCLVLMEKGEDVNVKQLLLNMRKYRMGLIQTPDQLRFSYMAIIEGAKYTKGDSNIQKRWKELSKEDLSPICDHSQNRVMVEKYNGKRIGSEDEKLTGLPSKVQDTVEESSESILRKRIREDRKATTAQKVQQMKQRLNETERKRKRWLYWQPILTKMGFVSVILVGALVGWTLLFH
Assay: HiBiT PTPN2 degradation in B16F10.4 cells, 24 hours
Format: cell-based

Example results:
Cn1c(=O)n(C2CCC(=O)NC2=O)c2ccc(-c3ccc([C@H](CO)C(=O)Nc4ccc5c(F)c(N6CC(=O)NS6(=O)=O)c(O)cc5c4)cc3)cc21 (some centres unmarked)    < 0.05 µM
Cc1cc(C(C)C(=O)Nc2ccc3c(F)c(N4CC(=O)NS4(=O)=O)c(O)cc3c2)ccc1Nc1ccc2c(c1)n(C)c(=O)n2C1CCC(=O)NC1=O (centres unmarked)    0.05 to 0.15 µM
Cn1c(=O)n(C2CCC(=O)NC2=O)c2ccc(-c3ccc4c(cnn4CC(=O)Nc4ccc5c(F)c(N6CC(=O)NS6(=O)=O)c(O)cc5c4)c3)cc21 (centres unmarked)    < 0.05 µM
Cn1c(=O)n(C2CCC(=O)NC2=O)c2ccc(-c3ccc(NC(=O)Nc4ccc5c(F)c(N6CC(=O)NS6(=O)=O)c(O)cc5c4)cc3)cc21 (centres unmarked)    0.05 to 0.15 µM

Could you now look at the following compound, please?
Report DC50 for Cn1c(=O)n(C2CCC(=O)NC2=O)c2ccc(C3CCN(CC(=O)N4CC[C@@H](Oc5ccc6cc(O)c(N7CC(=O)NS7(=O)=O)c(F)c6c5)C4)CC3(F)F)cc21 (some centres unmarked) tested on PTPN2 (Mus musculus, UniProt Q06180).
≥ 0.5 µM

----------
Target: PTPN2 (Homo sapiens)
Construct: expressed in transfected cells; host or cells: 293T.109 (HiBiT-PTPN2), derived from 293T WT (ATCC)
Test: HiBiT PTPN2 degradation in 293T.109 (HiBiT-PTPN2) cells, 24 hours
Assay type: cell-based
Details: 293T.109 cells
measure name: DC50

Below: 6 molecules and their reported DC50.
Cn1c(=O)n(C2CCC(=O)NC2=O)c2ccc([C@@H]3CCN(CC(=O)Nc4ccc5c(F)c(N6CC(=O)NS6(=O)=O)c(O)cc5c4)C3)cc21 (stereo partly drawn)    < 50 nM
Cn1c(=O)n([C@H]2CCC(=O)NC2=O)c2ccc(-c3ccc(CC(=O)Nc4ccc5c(F)c(N6CC(=O)NS6(=O)=O)c(O)cc5c4)cc3)cc21    50 to 150 nM
Cn1c(=O)n(C2CCC(=O)NC2=O)c2ccc(C3CCN(CC(=O)N4CC[C@@H](Oc5ccc6cc(O)c(N7CC(=O)NS7(=O)=O)c(F)c6c5)C4)CC3(F)F)cc21 (stereo partly drawn)    ≥ 500 nM
Cn1c(=O)n(C2CCC(=O)NC2=O)c2ccc([C@H]3CCN(CC(=O)Nc4ccc5c(F)c(N6CC(=O)NS6(=O)=O)c(O)cc5c4)C[C@@H]3O)cc21 (stereo partly drawn)    < 50 nM
Cn1c(=O)n(C2CCC(=O)NC2=O)c2ccc(C3CN(CC(=O)Nc4ccc5c(F)c(N6CC(=O)NS6(=O)=O)c(O)cc5c4)CCC3F)cc21 (stereo not drawn)    50 to 150 nM
Cn1c(=O)n(C2CCC(=O)NC2=O)c2ccc([C@H]3CCCN(CC(=O)Nc4ccc5c(F)c(N6CC(=O)NS6(=O)=O)c(O)cc5c4)C3)cc21 (stereo partly drawn)    150 to 500 nM

Could you tell me DC50 for each of these molecules? They are listed below.
1. COC1(CC(=O)Nc2ccc3c(F)c(N4CC(=O)NS4(=O)=O)c(O)cc3c2)CCN(c2ccc3c(c2)n(C)c(=O)n3C2CCC(=O)NC2=O)CC1 (stereo not drawn)
2. Cn1c(=O)n(C2CCC(=O)NC2=O)c2cc(F)c(N3CCN(CC(=O)Nc4ccc5c(F)c(N6CC(=O)NS6(=O)=O)c(O)cc5c4)CC3)cc21 (stereo not drawn)
3. CCn1nc(C2CCC(=O)NC2=O)c2ccc(C3CCN(CC(=O)Nc4ccc5c(F)c(N6CC(=O)NS6(=O)=O)c(O)cc5c4)CC3(F)F)cc21 (stereo not drawn)
4. COCCn1c(=O)n(C2CCC(=O)NC2=O)c2ccc(-c3ccc(CC(=O)Nc4ccc5c(F)c(N6CC(=O)NS6(=O)=O)c(O)cc5c4)cc3)cc21 (stereo not drawn)
5. C[C@H]1CN(CC(=O)Nc2ccc3c(F)c(N4CC(=O)NS4(=O)=O)c(O)cc3c2)CCN1c1cc2c(cc1F)n(C1CCC(=O)NC1=O)c(=O)n2C (stereo partly drawn)
6. Cn1c(=O)n(C2CCC(=O)NC2=O)c2ccc(N3CCC(CC(=O)Nc4ccc5c(F)c(N6CC(=O)NS6(=O)=O)c(O)cc5c4)CC3)cc21 (stereo not drawn) [Degrader 147]

["< 50 nM", "50 to 150 nM", "50 to 150 nM", "150 to 500 nM", "150 to 500 nM", "150 to 500 nM"]

Go through the items and report each one's DC50.
1. O=C1CCC(N2C(=O)c3cccc4c(N5CCC(CCNC(=O)Nc6ccc7c(F)c(N8CC(=O)NS8(=O)=O)c(O)cc7c6)CC5)ccc2c34)C(=O)N1 (stereo not drawn)
2. Cn1c(=O)n(C2CCC(=O)NC2=O)c2ccc([C@@H]3CN(CC(=O)Nc4ccc5c(F)c(N6CC(=O)NS6(=O)=O)c(O)cc5c4)CC[C@H]3F)cc21 (stereo partly drawn)
3. C[C@@H]1CN(CC(=O)Nc2ccc3c(F)c(N4CC(=O)NS4(=O)=O)c(O)cc3c2)CCN1c1ccc2c(c1F)n(C)c(=O)n2C1CCC(=O)NC1=O (stereo partly drawn)

1: < 50 nM; 2: < 50 nM; 3: 50 to 150 nM

----------
Please go through the items and note down their DC50.
Target: PTPN2 (Homo sapiens, UniProt P17706)
Construct: expressed in transfected cells; host or cells: 293T.109 (HiBiT-PTPN2), derived from 293T WT (ATCC)
Sequence (P17706 whole entry): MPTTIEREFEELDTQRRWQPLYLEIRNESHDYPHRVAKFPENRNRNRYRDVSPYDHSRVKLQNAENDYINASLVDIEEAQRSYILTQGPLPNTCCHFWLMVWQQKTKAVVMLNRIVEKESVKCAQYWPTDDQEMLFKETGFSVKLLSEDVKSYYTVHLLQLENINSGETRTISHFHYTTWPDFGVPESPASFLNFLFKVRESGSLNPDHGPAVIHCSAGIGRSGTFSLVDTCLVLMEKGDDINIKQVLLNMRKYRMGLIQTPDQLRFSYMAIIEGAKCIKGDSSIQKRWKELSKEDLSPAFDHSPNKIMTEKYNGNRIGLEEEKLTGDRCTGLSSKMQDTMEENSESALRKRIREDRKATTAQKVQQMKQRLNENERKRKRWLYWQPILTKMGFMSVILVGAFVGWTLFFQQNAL
Test: HiBiT PTPN2 degradation in 293T.109 (HiBiT-PTPN2) cells, 24 hours
Type: cell-based
Conditions: 293T.109 cells
Method: Dulbecco's modified Eagle medium (DMEM) without phenol red and fetal bovine serum (FBS) were purchased from Gibco (Grand Island, NY, USA). Nano-Glo® HiBiT Lytic Assay System was purchased from Promega (Medison, WI, USA). 293T. […] PTPN2 degradation was determined based on quantification of luminescent signal using Nano-Glo® HiBiT Lytic Assay kit. […] Luminescence was acquired on EnVision™ Multilabel Reader (PerkinElmer, Santa Clara, CA, USA).

Below: 4 compounds and their reported DC50.
Cn1c(=O)n(C2CCC(=O)NC2=O)c2ccc(C3CCN(CC4CC4C(=O)N4CC(Oc5ccc6cc(O)c(N7CC(=O)NS7(=O)=O)c(F)c6c5)C4)CC3)cc21 (centres unmarked)    50 to 150 nM
O=C1CCC(n2c3ccc(CCCCNC(=O)Nc4ccc5c(F)c(N6CC(=O)NS6(=O)=O)c(O)cc5c4)cc3c3cccnc32)C(=O)N1 (centres unmarked)    ≥ 500 nM
Cn1c(=O)n(C2CCC(=O)NC2=O)c2ccc(-n3ccc4cc(CC(=O)Nc5ccc6c(F)c(N7CC(=O)NS7(=O)=O)c(O)cc6c5)ccc43)cc21 (centres unmarked)    150 to 500 nM
Cn1c(=O)n([C@@H]2CCC(=O)NC2=O)c2ccc(-c3ccc(CC(=O)Nc4ccc5c(F)c(N6CC(=O)NS6(=O)=O)c(O)cc5c4)cc3)cc21    50 to 150 nM

Attention now shifts to the item below.
Which DC50 value is on record for Cn1c(=O)n(C2CCC(=O)NC2=O)c2ccc(N3CCC(O)(CC(=O)N4CC(Oc5ccc6cc(O)c(N7CC(=O)NS7(=O)=O)c(F)c6c5)C4)CC3)cc21 (centres unmarked) ?
150 to 500 nM
